log10 of IC50 listing for selected compounds.
Target: Human recombinant MMP-9 (Homo sapiens, UniProt P14780)
Construct: made in house; host or cells: MMP-9-transfected HT1080 cells (spent media)
Sequence (P14780 107-707 limits assumed): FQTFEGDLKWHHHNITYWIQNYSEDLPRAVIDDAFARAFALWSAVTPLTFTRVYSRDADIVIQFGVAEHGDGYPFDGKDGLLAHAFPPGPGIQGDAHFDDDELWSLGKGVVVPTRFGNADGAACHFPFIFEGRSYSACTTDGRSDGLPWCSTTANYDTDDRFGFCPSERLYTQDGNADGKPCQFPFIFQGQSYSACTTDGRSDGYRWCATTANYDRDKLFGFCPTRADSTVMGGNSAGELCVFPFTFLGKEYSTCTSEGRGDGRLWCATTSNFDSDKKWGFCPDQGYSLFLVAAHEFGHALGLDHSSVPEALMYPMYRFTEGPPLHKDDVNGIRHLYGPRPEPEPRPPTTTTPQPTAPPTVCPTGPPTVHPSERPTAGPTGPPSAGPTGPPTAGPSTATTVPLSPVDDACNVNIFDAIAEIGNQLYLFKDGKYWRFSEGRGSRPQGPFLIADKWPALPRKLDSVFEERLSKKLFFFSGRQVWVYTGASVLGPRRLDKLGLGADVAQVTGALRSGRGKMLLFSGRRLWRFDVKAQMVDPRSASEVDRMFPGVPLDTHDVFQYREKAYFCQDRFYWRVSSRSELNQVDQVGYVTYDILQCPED
Experiment: In vitro MMP inhibition, IC50 determination (fluorogenic substrate I)
Format: biochemical
Settings: substrate (I) 4 μM, room temperature; values not in parenthesis
Method: Several hydroxamates and salts thereof were analyzed in in vitro assays to determine their ability to inhibit the MMP cleavage of peptide substrates. Inhibition (Ki) and IC50 constants were calculated from the assayed hydroxamate-MMP interactions. […] The assays from which the IC50 determinations were made were performed as follows. […] The assayed hydroxamate samples were, incubated in Microfluorrm White Plates (Dynatech, Chantilly, VA) and analyzed on a Perkin Elmer L550 plate reader (Norwalk, Conn.). […]
Recorded Metric: log10 of IC50 (log10 of the value in µM)

>>> value("COCCN1CCC(C(=O)NO)(S(=O)(=O)c2ccc(OCCCc3cccc(-c4ccccc4)c3)cc2)CC1")
-0.81
>>> value("O=C(NO)C1(S(=O)(=O)c2ccc(OCCCc3nc(-c4ccc(OC(F)(F)F)cc4)no3)cc2)CCOCC1")
0.75
>>> value("COc1ccc(/C(C)=C/CCCOc2ccc(S(=O)(=O)C3(C(=O)NO)CCOCC3)cc2)cc1")
0.57
>>> value("O=C(NO)C1(S(=O)(=O)c2ccc(OCCCn3nnc(-c4ccc(OC(F)(F)F)cc4)n3)cc2)CCN(CC2CC2)CC1")
-1.12
>>> value("CN(CCCOc1ccc(S(=O)(=O)C2(C(=O)NO)CCOCC2)cc1)C(=O)c1ccc(N(C)C)cc1")
0.72
>>> value("O=C(NO)C1(S(=O)(=O)c2ccc(OCCCc3nc4ccccc4o3)cc2)CCOCC1")
-0.35
>>> value("COCCN1CCC(C(=O)NO)(S(=O)(=O)c2ccc(OCCCc3nc(-c4ccc(OC(F)(F)F)cc4)no3)cc2)CC1")
-0.42
